B1: tRNA (parent)
chain: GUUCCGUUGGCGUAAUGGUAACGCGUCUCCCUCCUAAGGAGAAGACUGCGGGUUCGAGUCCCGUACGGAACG

Variants of: B1
Assay: yeast fitness relative to wild type (ratio to wild type); higher = fitter; tRNA-Arg(CCU), competitive growth, 37 C, YPD
Fewer inactive variants are shown than the library holds.
Rule: 1 for yeast fitness not less than 0.6, -1 for anything less.

C24U G63A: 1

Exercise: Threshold query (yeast fitness >= 0.6) on C4A C46G C61A
Key: -1

Exercise: Check the entry C62G A65U : does yeast fitness equal or exceed 0.6?
Key: 1

Exercise: Threshold query (yeast fitness >= 0.6) on A21C A36U A37G A42C U64A
Key: -1

Exercise: Test whether the variant A37U A57C U64G records yeast fitness of 0.6 or higher.
Key: -1

Exercise: Hello, I need to know if U3G C4A A40U C66A A69C has measured yeast fitness not below 0.6. Thanks!
Key: -1

The reported measurements were obtained from the RNAGym collection of RNA variant scans (doi:10.1126/science.aae0568).
